TARGET_SYSTEM: Glycogen synthase kinase-3 beta (Homo sapiens)
Sequence (P49841 whole entry): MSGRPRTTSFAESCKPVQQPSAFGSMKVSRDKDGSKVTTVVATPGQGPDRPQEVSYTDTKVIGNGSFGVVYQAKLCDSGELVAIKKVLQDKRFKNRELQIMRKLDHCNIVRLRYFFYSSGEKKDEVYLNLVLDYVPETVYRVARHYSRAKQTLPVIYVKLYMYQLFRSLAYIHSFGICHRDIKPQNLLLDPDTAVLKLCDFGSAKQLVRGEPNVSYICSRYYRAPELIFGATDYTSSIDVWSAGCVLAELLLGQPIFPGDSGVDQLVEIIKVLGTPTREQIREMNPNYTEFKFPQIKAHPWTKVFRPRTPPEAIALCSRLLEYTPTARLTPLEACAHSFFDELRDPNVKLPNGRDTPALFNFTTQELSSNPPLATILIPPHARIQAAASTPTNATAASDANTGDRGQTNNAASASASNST
PROCEDURE_SUMMARY: Inhibition of GSK3beta (unknown origin) after 1 hr by fluorescence polarization assay
Give measured pIC50 for each item. Keep answers brief.
Reminder that pIC50 means the negative base-10 logarithm of the concentration expressed in mol/L.

Lookup: API: value(readout= pIC50, system= Glycogen synthase kinase-3 beta (Homo sapiens), query= "O=C(Nc1cc(-c2cccc3[nH]ccc23)cc2[nH]ncc12)c1ccccn1" )
Found: 5.50

Lookup: Could you share what pIC50 was measured for "O=C(Nc1cc(-c2cccc(O)c2)cc2[nH]ncc12)C1CC1" , tested on Glycogen synthase kinase-3 beta (Homo sapiens)?
Found: 5.90

Lookup: # value lookup — system Glycogen synthase kinase-3 beta (Homo sapiens), readout pIC50, item "O=C(Nc1cc(-c2cccc(O)c2)cc2[nH]ncc12)c1ccccn1"
Found: 5.80

Lookup: Notebook: pull reported pIC50 for Glycogen synthase kinase-3 beta (Homo sapiens), entry "O=C(Nc1cc(-c2ccc(O)cc2)cc2[nH]ncc12)C1CC1"
Found: 6.20

Lookup: // lookup pIC50 | system=Glycogen synthase kinase-3 beta (Homo sapiens) | key= "O=C(Nc1cc(-c2ccccc2)cc2[nH]ncc12)C1CC1"
Found: 4.50

Lookup: Quick check: pIC50 on Glycogen synthase kinase-3 beta (Homo sapiens), item "O=C(Nc1cc(-c2cccc3[nH]ccc23)cc2[nH]ncc12)C1CC1" ?
Found: 5.10

---

TARGET_SYSTEM: Phosphatidylinositol 4,5-bisphosphate 3-kinase catalytic subunit delta isoform (Homo sapiens)
Sequence (O00329 whole entry, canonical isoform): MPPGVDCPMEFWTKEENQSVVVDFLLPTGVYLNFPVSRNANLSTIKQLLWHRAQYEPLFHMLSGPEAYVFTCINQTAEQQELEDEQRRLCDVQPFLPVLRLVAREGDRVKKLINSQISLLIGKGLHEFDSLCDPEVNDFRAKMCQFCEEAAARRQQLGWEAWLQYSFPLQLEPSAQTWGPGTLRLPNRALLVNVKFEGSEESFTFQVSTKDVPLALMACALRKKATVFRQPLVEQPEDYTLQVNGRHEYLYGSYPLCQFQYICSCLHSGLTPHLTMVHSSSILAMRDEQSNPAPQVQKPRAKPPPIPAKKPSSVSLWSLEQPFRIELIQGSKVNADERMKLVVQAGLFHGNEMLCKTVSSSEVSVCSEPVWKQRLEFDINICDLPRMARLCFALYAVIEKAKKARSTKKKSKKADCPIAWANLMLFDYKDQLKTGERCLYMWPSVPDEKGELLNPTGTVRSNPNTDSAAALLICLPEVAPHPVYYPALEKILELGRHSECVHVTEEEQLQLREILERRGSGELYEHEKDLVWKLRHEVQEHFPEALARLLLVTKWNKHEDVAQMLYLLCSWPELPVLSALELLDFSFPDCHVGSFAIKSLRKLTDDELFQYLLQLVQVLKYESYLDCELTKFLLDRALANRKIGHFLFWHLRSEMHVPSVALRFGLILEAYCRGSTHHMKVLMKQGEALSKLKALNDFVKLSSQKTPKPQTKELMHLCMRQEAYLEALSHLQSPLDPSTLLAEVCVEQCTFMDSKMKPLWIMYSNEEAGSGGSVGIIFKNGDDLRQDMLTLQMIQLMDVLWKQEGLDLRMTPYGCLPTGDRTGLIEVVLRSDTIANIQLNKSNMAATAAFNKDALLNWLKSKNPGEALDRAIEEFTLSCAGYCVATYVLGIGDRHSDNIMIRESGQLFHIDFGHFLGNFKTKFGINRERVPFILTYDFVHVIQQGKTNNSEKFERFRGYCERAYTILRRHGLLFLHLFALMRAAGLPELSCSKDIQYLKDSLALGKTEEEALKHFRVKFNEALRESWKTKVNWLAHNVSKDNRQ
PROCEDURE_SUMMARY: Inhibition of PI3Kdelta (unknown origin) using PIP2 as substrate pretreated for 15 mins followed by substrate addition measured after 1 hr
ATTRIBUTE_MEASURED: pIC50
Please report pIC50 as the negative decimal logarithm of the molar concentration, giving only the number.

Lookup: Entry "O=C(Nc1cc(-c2cccc3[nH]ccc23)cc2[nH]ncc12)C1CC1" : reported pIC50 = ?
Found: 6.00

Lookup: What value of pIC50 has been reported for the following compound? "O=C(Nc1cc(-c2ccc3cc[nH]c3c2)cc2[nH]ncc12)c1ccccn1"
Found: 5.50

Lookup: Quick one: pIC50 for "O=C(Nc1cc(-c2ccc(O)cc2)cc2[nH]ncc12)c1ccccn1" ?
Found: 6.30

Lookup: pIC50 for "O=C(Nc1cc(-c2cccc(O)c2)cc2[nH]ncc12)C1CC1" ?
Found: 5.40

Lookup: What pIC50 value was documented for this compound, "O=C(Nc1cc(-c2ccccc2)cc2[nH]ncc12)C1CC1" ?
Found: 4.70

Lookup: Requested field: pIC50. Item: "O=C(Nc1cc(-c2cccc(O)c2)cc2[nH]ncc12)c1ccccn1"
Found: 5.80

Lookup: So what's the measured pIC50 for this one? "O=C(Nc1cc(-c2ccc(O)cc2)cc2[nH]ncc12)C1CC1"
Found: 5.20

Lookup: GET /values?readout=pIC50&item= "O=C(Nc1n[nH]c2cc(-c3ccc(O)cc3)ccc12)C1CC1"
Found: 4.60

---

Task for the reader: assign each of the following molecules its reported IC50.
The figure you give is taken to be in µM; do not add the unit.

Lookup: // fetch Serine/threonine-protein kinase pim-1 (Homo sapiens) IC50 for "O=C(Nc1cc(-c2cccc3[nH]ccc23)cc2[nH]ncc12)c1ccccn1"
Found: 2.51

Lookup: Kindly state the measured IC50 obtained for "O=C(Nc1cc(-c2ccccc2)cc2[nH]ncc12)C1CC1" with Serine/threonine-protein kinase pim-1 (Homo sapiens).
Sequence (P11309 whole entry): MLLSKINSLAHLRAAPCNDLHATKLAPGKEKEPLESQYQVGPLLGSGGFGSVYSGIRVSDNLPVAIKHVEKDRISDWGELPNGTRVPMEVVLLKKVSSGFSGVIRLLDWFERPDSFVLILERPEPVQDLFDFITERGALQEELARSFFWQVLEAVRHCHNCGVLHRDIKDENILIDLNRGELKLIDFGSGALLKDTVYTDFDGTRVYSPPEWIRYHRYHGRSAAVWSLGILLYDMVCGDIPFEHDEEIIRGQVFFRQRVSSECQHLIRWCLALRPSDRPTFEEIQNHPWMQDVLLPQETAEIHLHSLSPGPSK
Found: 15.8

Lookup: Param readout= IC50; system= Serine/threonine-protein kinase pim-1 (Homo sapiens); entry= "O=C(Nc1cc(-c2cccc(O)c2)cc2[nH]ncc12)c1ccccn1" ; returns value.
Found: 2

Lookup: Could you share what IC50 was measured for "O=C(Nc1cc(-c2cccc(O)c2)cc2[nH]ncc12)C1CC1" , tested on Serine/threonine-protein kinase pim-1 (Homo sapiens)?
Found: 2.51

Lookup: # get_value(readout= IC50, system= Serine/threonine-protein kinase pim-1 (Homo sapiens)) for "O=C(Nc1cc(-c2ccc(O)cc2)cc2[nH]ncc12)c1ccccn1"
Found: 0.126

---

TARGET_SYSTEM: Phosphatidylinositol 4,5-bisphosphate 3-kinase catalytic subunit gamma isoform (Homo sapiens)
Sequence (P48736 whole entry, canonical isoform): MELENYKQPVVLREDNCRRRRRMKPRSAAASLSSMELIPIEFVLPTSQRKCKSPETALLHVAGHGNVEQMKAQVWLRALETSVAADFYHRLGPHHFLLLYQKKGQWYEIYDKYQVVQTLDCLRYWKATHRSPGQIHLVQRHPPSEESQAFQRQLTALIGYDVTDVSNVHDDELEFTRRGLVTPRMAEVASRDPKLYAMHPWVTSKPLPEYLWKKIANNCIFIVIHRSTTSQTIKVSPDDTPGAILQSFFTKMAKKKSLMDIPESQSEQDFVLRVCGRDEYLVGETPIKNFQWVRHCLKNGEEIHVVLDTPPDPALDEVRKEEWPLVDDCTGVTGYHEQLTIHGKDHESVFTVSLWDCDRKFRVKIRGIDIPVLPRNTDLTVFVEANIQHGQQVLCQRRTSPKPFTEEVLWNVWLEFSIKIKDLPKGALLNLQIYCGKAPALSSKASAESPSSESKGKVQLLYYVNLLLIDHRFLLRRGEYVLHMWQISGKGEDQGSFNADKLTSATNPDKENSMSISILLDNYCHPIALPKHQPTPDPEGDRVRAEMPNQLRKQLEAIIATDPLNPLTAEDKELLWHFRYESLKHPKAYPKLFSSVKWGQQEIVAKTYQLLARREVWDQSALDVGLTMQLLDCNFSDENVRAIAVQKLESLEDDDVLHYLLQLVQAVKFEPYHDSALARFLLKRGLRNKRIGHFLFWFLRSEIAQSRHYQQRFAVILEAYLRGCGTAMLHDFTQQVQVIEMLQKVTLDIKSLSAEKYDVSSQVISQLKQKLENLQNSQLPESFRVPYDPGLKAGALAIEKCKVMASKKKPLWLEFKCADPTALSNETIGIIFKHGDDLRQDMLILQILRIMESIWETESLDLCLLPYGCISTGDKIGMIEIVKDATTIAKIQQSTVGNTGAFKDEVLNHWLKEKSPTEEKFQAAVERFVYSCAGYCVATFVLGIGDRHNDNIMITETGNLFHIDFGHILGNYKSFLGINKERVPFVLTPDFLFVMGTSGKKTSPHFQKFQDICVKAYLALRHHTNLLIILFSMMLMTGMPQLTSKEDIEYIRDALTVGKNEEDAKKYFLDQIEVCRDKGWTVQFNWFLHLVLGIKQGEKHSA
PROCEDURE_SUMMARY: Inhibition of PI3Kgamma (unknown origin) using PIP2 as substrate pretreated for 15 mins followed by substrate addition measured after 1 hr
pIC50: −log10 of the molar value.
Please go through the items and note down their pIC50.

Lookup: Fill in the blank: the reported pIC50 of "O=C(Nc1cc(-c2cccc3[nH]ccc23)cc2[nH]ncc12)C1CC1" is ____.
Found: < 4.60

Lookup: # get_value(readout='pIC50', item= "O=C(Nc1cc(-c2ccc(O)cc2)cc2[nH]ncc12)C1CC1" )
Found: < 4.60

Lookup: What pIC50 value was documented for this compound, "O=C(Nc1n[nH]c2cc(-c3ccc(O)cc3)ccc12)C1CC1" ?
Found: < 4.60
